- tested.on: T1, EsCas13d, nuclease-dead (Eubacterium siraeum, UniProt B0MS50, R295A;H300A;R849A;H854A)
- T1 sequence: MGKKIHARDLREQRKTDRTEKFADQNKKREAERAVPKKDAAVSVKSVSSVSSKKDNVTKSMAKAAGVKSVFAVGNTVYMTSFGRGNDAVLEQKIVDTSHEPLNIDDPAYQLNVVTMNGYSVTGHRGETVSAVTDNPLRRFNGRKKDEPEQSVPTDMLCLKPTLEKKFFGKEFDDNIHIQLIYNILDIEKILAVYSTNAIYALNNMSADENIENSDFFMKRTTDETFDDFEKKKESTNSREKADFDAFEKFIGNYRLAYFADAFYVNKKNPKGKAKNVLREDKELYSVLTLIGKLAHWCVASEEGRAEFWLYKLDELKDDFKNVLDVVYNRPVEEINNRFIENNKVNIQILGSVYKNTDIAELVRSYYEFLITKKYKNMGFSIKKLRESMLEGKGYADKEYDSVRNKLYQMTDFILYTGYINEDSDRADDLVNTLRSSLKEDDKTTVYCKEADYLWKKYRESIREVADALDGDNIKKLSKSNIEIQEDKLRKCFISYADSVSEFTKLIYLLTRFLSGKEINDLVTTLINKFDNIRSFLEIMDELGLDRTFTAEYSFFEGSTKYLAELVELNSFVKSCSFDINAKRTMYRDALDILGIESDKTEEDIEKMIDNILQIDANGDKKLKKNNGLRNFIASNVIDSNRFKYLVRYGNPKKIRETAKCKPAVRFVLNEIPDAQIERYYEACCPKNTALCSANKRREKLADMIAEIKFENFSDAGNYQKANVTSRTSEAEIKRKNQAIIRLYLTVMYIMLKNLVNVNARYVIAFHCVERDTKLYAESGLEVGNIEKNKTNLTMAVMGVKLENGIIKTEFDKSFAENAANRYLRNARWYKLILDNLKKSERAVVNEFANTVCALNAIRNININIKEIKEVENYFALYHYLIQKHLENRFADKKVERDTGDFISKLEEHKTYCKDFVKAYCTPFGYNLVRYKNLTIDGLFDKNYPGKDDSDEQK
- assay.remarks: crRNA (strand 1, pre-loaded); Mg2+; 40 mM Tris-HCl pH 7.5, 150 mM NaCl, 6 mM MgCl2, 1 mM DTT, 0.1% Tween-20, 0.2 mg/ml BSA; 25 C; 10 min per concentration, then washed
- condition.context: tags: His6-TwinStrep-SUMO cleaved; N-terminal SNAP kept (SNAP-Surface 488); label: 3' end held by stalled T7 RNA polymerase
pKd: −log10 of the molar value.
Label T when pKd >= 8; otherwise F.

Use these answered entries as a reference point.
binder	cat
target 1 U10G,A14C (mixed) RNA 1: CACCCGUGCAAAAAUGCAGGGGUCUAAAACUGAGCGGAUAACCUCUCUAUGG RNA 2: GGGAAUGGAUCCACAUCUACGAAUUCGUACCAUAGAGCGGUGAUCCGCUCACCGAGAUCGGAAGAGCACACGU	F
target 1 U11C,G13C (mixed) RNA 1: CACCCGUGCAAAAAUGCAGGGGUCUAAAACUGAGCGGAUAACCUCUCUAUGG RNA 2: GGGAAUGGAUCCACAUCUACGAAUUCGUACCAUAGAGACGCUAUCCGCUCACCGAGAUCGGAAGAGCACACGU	F
target 3 G3A (mixed) RNA 1: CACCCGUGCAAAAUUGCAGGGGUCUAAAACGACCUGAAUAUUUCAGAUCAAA RNA 2: GGGAAUGGAUCCACAUCUACGAAUUCGUUUUUGAUCUGAAAUAUUCAGAUCUGCAGAUCGGAAGAGCACACGU	F
target 1 MT 5'PFS ACG 3'PFS UCG (mixed) RNA 1: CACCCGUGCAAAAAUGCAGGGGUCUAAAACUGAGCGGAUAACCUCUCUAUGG RNA 2: GGGAAUGGAUCCACAUCUACGAAUUCACGCCAUAGAGAGGUUAUCCGCUCAUCGAGAUCGGAAGAGCACACGU	F
target 1 MT 5'PFS GAC 3'PFS CGC (mixed) RNA 1: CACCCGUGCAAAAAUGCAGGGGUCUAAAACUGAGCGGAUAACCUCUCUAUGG RNA 2: GGGAAUGGAUCCACAUCUACGAAUUCGACCCAUAGAGAGGUUAUCCGCUCACGCAGAUCGGAAGAGCACACGU	F

Prompt line: Determine whether this binder has pKd no lower than 8: target 1 MT 5'PFS CUG 3'PFS UCU (mixed) RNA 1: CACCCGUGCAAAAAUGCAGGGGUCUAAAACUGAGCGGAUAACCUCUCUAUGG RNA 2: GGGAAUGGAUCCACAUCUACGAAUUCCUGCCAUAGAGAGGUUAUCCGCUCAUCUAGAUCGGAAGAGCACACGU
Response line: T
